cytotoxicity at 70.5 h listing for selected molecules.
Experiment: Human HepG2 cell viability assay in 384 well format
Assay type: toxicity, cell-based
Design: dose 125 nL, time 70.5 hour; concentration not given beside the values
Settings: HepG2 cells, read-out: Inhibition

molecule	cytotoxicity at 70.5 h (%)
Nc1cc(C(=O)NCC2CCN(CCc3ccccc3)C2)ccn1 (centres undefined)	-6.39
CC(C)(C)NC(=O)[C@@H]1Cc2ccccc2CN1Cc1cccs1	8.37
CC(=O)N1CCC(C(=O)N(C)[C@@H]2CCC[C@@H](N3CCCC3)[C@@H]2O)CC1	41.3
Cc1cnccc1N1CCCN(Cc2ccc(-c3cc[nH]n3)o2)CC1	-5.27
Cc1cc(C)c2cc(CNCc3ccco3)c3nn(C)c(=O)n3c2c1	19.9
CC(C)c1cnc(CN2CCCC(c3ccn[nH]3)C2)o1 (centres undefined)	-7.68
Cc1ccc(C(C)NCCc2nccn2Cc2ccccc2)o1 (centres undefined)	-10.1
O=C(Nc1ccn(Cc2cccc3cccnc23)n1)C1COCCO1 (centres undefined)	-8.35
Cn1c(CN2CCN(c3cccnc3)CC2)cc2ccccc21	-4.28
CCN(Cc1cccc2c1OCO2)C(=O)NC1CC1	8.97
Cc1cc(C[C@@H]2CCC[C@H]2NCc2cccc(F)c2F)on1	-2.88
CCn1c(N)nc2cc(C(=O)N(C)Cc3cc(C(C)(C)C)n[nH]3)cnc21	-5.41
COc1ccc(-c2n[nH]cc2CN(C)CCc2scnc2C)c(F)c1	1.84
CCS(=O)(=O)c1ccc(N2CCC(NC(=O)C(C)SC)CC2)cc1 (centres undefined)	-6.83
Cc1ccc(OCCN(C)Cc2cscn2)cc1	-2.46
COC(C)C(=O)NS(=O)(=O)c1ccc(F)c(C(F)(F)F)c1 (centres undefined)	-12.6
CNC(=O)NC(=O)CCN1CCCC1c1nc(C2CCCCC2)co1 (centres undefined)	-7.7
CCn1nc(C)c(CNC(=O)c2cn(CC3CCCO3)nn2)c1C (centres undefined)	-1.67
CC(C)n1cc(C(=O)N2CCC(n3cc(C(C)(C)C)nn3)CC2)cn1	-12.1
COc1ccc(N(C(=O)c2cnc(C)cn2)C(C)C)cc1F	-3.96
CC(C)N(C)C(=O)C1CCC(=O)N(CCc2cccc(F)c2)C1 (centres undefined)	-3.96
CCOc1cc(F)ccc1NS(=O)(=O)c1cc(C)c(C(=O)O)s1	-8.13
O=C1N(Cc2cccc(F)c2)CCC12CCCNC2 (centres undefined)	-13.6
Cn1c(NCC(O)c2ccc(F)c(F)c2)c(C#N)c(=O)n(C)c1=O (centres undefined)	1.75
